This listing pairs molecules with measured pIC50.
# experimental.target: Gamma secretase (Homo sapiens, UniProt P49768)
# Construct: endogenous in cells; host or cells: Salt-washed membranes of 293 T-REx cells, clone pTRE.15; Only the substrate SPC99-Lon is transfected (pcDNA4/TO, tetracycline-induced)
# protocol.text: Gamma secretase activity assay on membranes of 293 cells expressing SPC99-Lon (Aβ 40 / Aβ 42 measured by ECL immunoassay)
# Type: biochemical
# condition.label: membrane γ-secretase assay; range stated for a group of examples; read-out: IC50 within the range stated, gamma secretase assay
pIC50: −log10 of the molar value.

Below, each entry is followed by its recorded pIC50 result.
molecule="O=C(OC1([C@H]2CCC[C@@H](C3CC3)N2S(=O)(=O)c2ccc(Cl)cc2)CC1)N1CCN(CC2CC2)CC1 [Example 161-F]" quantity_name=pIC50 result="7.82 to 9.70"
molecule="O=C(OC1([C@H]2CCC[C@@H](c3cc(F)cc(F)c3)N2S(=O)(=O)c2ccc(Cl)cc2)CC1)N1CCC(N2CCCCC2)CC1 [Example 173]" quantity_name=pIC50 result="7.82 to 9.70"

Qu. Fill in the blank: the reported pIC50 of Cc1cc([C@@H]2CCC[C@H](COC(=O)N3CCC(N4CCCCC4)CC3)N2S(=O)(=O)c2ccc(Cl)cc2)ccc1F [Example 67-BE] is ____.
Ans. 7.82 to 9.70
